Source of measurements: paper PMC6862250

Test: RP-TLC lipophilicity, silica gel C8, methanol-water
Type: physicochemical
Details: RP-TLC silica gel C8, C0 = −RM^0/b
Lab note - cut at 1 for C 0: YES if strictly below, NO if not.

| Compound | Qualitative label |
| --- | --- |
| O=C(O)C1=Cc2ccccc2N2C[N+]3(CCN(c4cc5c(cc4F)c(=O)c(C(=O)O)cn5C4CC4)CC3)N=C12.[Cl-] | NO |
| COc1c(N2CC[N+]3(CN4C(C)=CC(C)=C(C(=O)O)C4=N3)C(C)C2)c(F)cc2c(=O)c(C(=O)O)cn(C3CC3)c12.[Cl-] (stereo not drawn) | YES |
| COc1c(N2CCNC(C)C2)c(F)cc2c(=O)c(C(=O)O)cn(C3CC3)c12 (stereo not drawn) [Compound 21, reference compound] | YES |
| CCn1cc(C(=O)O)c(=O)c2cc(F)c(N3CC[N+]4(CN5C(C)=CC(C)=C(C(=O)O)C5=N4)C(C)C3)c(F)c21.[Cl-] (stereo not drawn) | YES |
| COc1c(N2CC3CCC[N+]4(CN5C(=N4)C(C(=O)O)=Cc4ccccc45)C3C2)c(F)cc2c(=O)c(C(=O)O)cn(C3CC3)c12.[Cl-] (stereo not drawn) | YES |
| COc1c(N2CC[N+]3(CN4C(=N3)C(C(=O)O)=Cc3ccccc34)C(C)C2)c(F)cc2c(=O)c(C(=O)O)cn(C3CC3)c12.[Cl-] (stereo not drawn) | YES |
| CC1=CC(C)=C(C(=O)O)C2=N[N+]3(CN12)C(C)CN(c1c(F)c(N)c2c(=O)c(C(=O)O)cn(C4CC4)c2c1F)CC3C.[Cl-] (stereo not drawn) | YES |
| CCn1cc(C(=O)O)c(=O)c2cnc(N3CC[N+]4(CC3)CN3C(C)=CC(C)=C(C(=O)O)C3=N4)nc21.[Cl-] | NO |
